System: 922993-354-T-J3-PDC complex spheroid viability
Assay: Anticancer human tumor 922993-354-T-J3-PDC patient-derived endometrial carcinoma cell line growth inhibition [POLQ]
Conditions: second compound 0.1 µM; first compound 10 µM; stronger effect = lower value
Method: Multicellular complex tumor spheroid response to Polymerase (POL) inhibitors (novobiocin, ART-558, RP6685) in combination with a variety of drugs and investigational agents in selected tumor cell lines The POL inhibitors (novobiocin, ART-558, and RP6685) were evaluated both individually and in combination with standard of care and investigational anticancer small molecules within a complex spheroid model of solid tumors. . […]
Quantity: viability, T/C (%)
Give bare numbers, in %.

Solved entries:
- O=C(Nc1ccc(O)c(NS(=O)(=O)c2ccc(F)cc2)c1)c1ccc(-c2ccccc2)cc1 + COC1C(OC(N)=O)C(O)C(Oc2ccc3c(O)c(NC(=O)c4ccc(O)c(CC=C(C)C)c4)c(=O)oc3c2C)OC1(C)C: 102
- COc1ccc([C@@H](O)c2cc(-c3ncnc4cc(N5CCOCC5)ccc34)c(F)cc2Cl)nn1 + Cc1cccc(N(C)C(=O)C2C(O)CCN2c2nc(C)cc(C(F)(F)F)c2C#N)c1: 63.9

Now look at this entry.
In: Give viability, T/C for the following compound: C=CC(=O)N1CCN(c2nc(=O)n(-c3c(C)ccnc3C(C)C)c3nc(-c4c(O)cccc4F)c(F)cc23)C(C)C1 (stereo not drawn) + COC1C(OC(N)=O)C(O)C(Oc2ccc3c(O)c(NC(=O)c4ccc(O)c(CC=C(C)C)c4)c(=O)oc3c2C)OC1(C)C
Out: 97.6

###

Test system: 922993-354-T-J3-PDC complex spheroid viability
Test: Anticancer human tumor 922993-354-T-J3-PDC cell line growth inhibition [POLQ];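 also: spheroids exposed to the agents for one week; 100% = DMSO vehicle control wells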
Settings: second compound 0.316 µM; first compound 0.1 µM; stronger effect = lower value
Consider the following compounds; for each one, report its viability, T/C.
One number for each entry, in %.

Solved entries:
* C=CC(=O)N1CCN(c2nc(=O)n(-c3c(C)ccnc3C(C)C)c3nc(-c4c(O)cccc4F)c(F)cc23)C(C)C1 (stereo unspecified) + Cc1cccc(N(C)C(=O)C2C(O)CCN2c2nc(C)cc(C(F)(F)F)c2C#N)c1 | 99.2
* C#Cc1c(F)ccc2cc(O)cc(-c3ncc4c(N5CC6CCC(C5)N6)nc(OCC56CCCN5CC(F)C6)nc4c3F)c12 (stereo unspecified) + Nc1ccc(C#CCN(C(=O)Cc2ncc(C(F)(F)F)cc2C(F)(F)F)c2ccc(F)cc2)nn1 | 108
* C=CC(=O)N1CCN(c2nc(=O)n(-c3c(C)ccnc3C(C)C)c3nc(-c4c(O)cccc4F)c(F)cc23)C(C)C1 (stereo unspecified) + COC1C(OC(N)=O)C(O)C(Oc2ccc3c(O)c(NC(=O)c4ccc(O)c(CC=C(C)C)c4)c(=O)oc3c2C)OC1(C)C | 101

// for each compound below, give its viability, T/C
1. CCc1cc2c(N3CCc4c(cc(Cn5ccnc5)cc4-c4cn(C)nc4C(F)(F)F)C3=O)ccnc2c(OC)n1 + Nc1ccc(C#CCN(C(=O)Cc2ncc(C(F)(F)F)cc2C(F)(F)F)c2ccc(F)cc2)nn1
2. Cn1ncnc1[C@H]1c2n[nH]c(=O)c3cc(F)cc(c23)N[C@@H]1c1ccc(F)cc1 + Nc1ccc(C#CCN(C(=O)Cc2ncc(C(F)(F)F)cc2C(F)(F)F)c2ccc(F)cc2)nn1
3. CCc1cc2c(N3CCc4c(cc(Cn5ccnc5)cc4-c4cn(C)nc4C(F)(F)F)C3=O)cc(C)nc2c(OC)n1 + Cc1cccc(N(C)C(=O)C2C(O)CCN2c2nc(C)cc(C(F)(F)F)c2C#N)c1
4. CNCc1ccc(-c2[nH]c3cc(F)cc4c3c2CCNC4=O)cc1 + Nc1ccc(C#CCN(C(=O)Cc2ncc(C(F)(F)F)cc2C(F)(F)F)c2ccc(F)cc2)nn1

Out:
[102, 89.6, 103, 99.2]
